Numbers sourced from patent US20090197856A1.

- tested_target: NS5B (Hepatitis C virus genotype 1b, UniProt Q9WMX2)
- Construct: 3 nM NS5B, 20 nM polyC RNA template
- Sequence (Q9WMX2 2420-3010): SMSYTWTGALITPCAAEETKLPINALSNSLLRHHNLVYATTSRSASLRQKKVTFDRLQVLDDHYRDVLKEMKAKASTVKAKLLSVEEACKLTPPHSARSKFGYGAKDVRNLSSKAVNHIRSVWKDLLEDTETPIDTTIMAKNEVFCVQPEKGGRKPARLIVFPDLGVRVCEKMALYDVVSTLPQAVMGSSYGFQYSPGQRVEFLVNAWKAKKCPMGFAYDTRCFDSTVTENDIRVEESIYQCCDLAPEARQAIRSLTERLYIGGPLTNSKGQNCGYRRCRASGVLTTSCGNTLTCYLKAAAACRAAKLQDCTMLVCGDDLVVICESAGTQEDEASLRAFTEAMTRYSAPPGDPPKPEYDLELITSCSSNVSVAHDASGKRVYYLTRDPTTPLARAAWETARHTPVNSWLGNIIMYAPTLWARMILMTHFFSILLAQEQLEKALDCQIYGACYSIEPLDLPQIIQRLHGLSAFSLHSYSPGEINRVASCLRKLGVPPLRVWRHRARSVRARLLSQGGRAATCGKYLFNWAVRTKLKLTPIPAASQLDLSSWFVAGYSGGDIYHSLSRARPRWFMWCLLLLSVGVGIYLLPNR
- test_name: Polymerase assay, incorporation of radiolabeled GTP with biotinylated oligoG13 primer and polycytidylic acid RNA template
- Format: biochemical
- particulars: polyC RNA template, biotin-oligoG13 primer, tritiated GTP, 3 nM NS5B, 30° C., 2 hours
pIC50: −log10 of the molar value.
parameter_measured: pIC50

compound	parameter_measured	observed_result
O=C(O)c1ccc2c(C3CCCCC3)c3n(c2c1)CCCn1cc(N2CCCCC2)c2cccc-3c21 [Compound 261]	pIC50	8.52
CCN(C)Cc1c(C(=O)NC2CC2)n2c3c(cccc13)-c1c(C3CCCCC3)c3ccc(C(=O)O)cc3n1CCC2 [Compound 319]	pIC50	7.96
NCCC1CCN2CCn3c(c(C4CCCCC4)c4ccc(C(=O)O)cc43)-c3cccc1c32 (stereo not shown) [Compound 301]	pIC50	8.47
O=C(O)c1ccc2c(C3CCCCC3)c3n(c2c1)CCN1CCC(N2CCCC2)c2cccc-3c21 (stereo not shown) [Compound 287]	pIC50	8.57
N[C@@H]1CCN2CCn3c(c(C4CCCCC4)c4ccc(C(=O)NC5CC5)cc43)-c3cccc1c32 [Compound 298]	pIC50	8.14
CCN(C)Cc1c(C(=O)N(C)C)n2c3c(cccc13)-c1c(C3CCCCC3)c3ccc(C(=O)NS(=O)(=O)C4CC4)cc3n1CCC2 [Compound 316]	pIC50	8.30
CC1(C)C(=O)N2CCCn3c(c(C4CCCCC4)c4ccc(C(=O)O)cc43)-c3cccc1c32 [Compound 265]	pIC50	8.05
CC(C)CNC1CCN2CCn3c(c(C4CCCCC4)c4ccc(C(=O)O)cc43)-c3cccc1c32 (stereo not shown) [Compound 278]	pIC50	8.59

1. CCN(CC)[C@@H]1CCN2CCn3c(c(C4CCCCC4)c4ccc(C(=O)O)cc43)-c3cccc1c32 [Compound 290]
2. NCCNC1CCN2CCn3c(c(C4CCCCC4)c4ccc(C(=O)O)cc43)-c3cccc1c32 (stereo not shown) [Compound 284]
Q: Larger number for pIC50: 1 , or 2 ? Refer to your chosen entry by its label in the reply.
Result: 1
